- Tested on: KLE (Endometrial Carcinoma)
- Protocol: combination Emax (second highest fraction inhibited in the dose matrix, 72 h); higher = more inhibition; extreme values may be limits of the assay
Please go through the items and note down their combination Emax.
One number for each entry.

Examples with their reported combination Emax follow.
Molecule	Readout number
NC1(C(=O)N[C@@H](CCO)c2ccc(Cl)cc2)CCN(c2ncnc3[nH]ccc23)CC1 [Capivasertib] + CC(C)n1c(=O)n(C)c2cnc3cc(F)c(-c4ccc(OCCCN5CCCCC5)nc4)cc3c21 [AZD1390] (first compound max 10 µM, 7x7, partner max 0.3 µM)	0.43
CN(CCO)CC[C@H](CSc1ccccc1)Nc1ccc(S(=O)(=O)NC(=O)c2ccc(N3CCC([C@@H](O)c4ccccc4-c4ccc(Cl)cc4)CC3)cc2)cc1S(=O)(=O)C(F)(F)F [AZD4320] + CCN(CCO)CCCOc1ccc2c(Nc3cc(CC(=O)Nc4cccc(F)c4)[nH]n3)ncnc2c1 [AZD2811] (first compound max 1 µM, 7x7, partner max 1 µM)	0.297
CCN(CCO)CCCOc1ccc2c(Nc3cc(CC(=O)Nc4cccc(F)c4)[nH]n3)ncnc2c1 [AZD2811] + C=CCn1c(=O)c2cnc(Nc3ccc(N4CCN(C)CC4)cc3)nc2n1-c1cccc(C(C)(C)O)n1 [AZD1775] (first compound max 1 µM, partner max 1 µM)	0.564

Provide each entry's combination Emax from the list below.
1. CN(CCO)CC[C@H](CSc1ccccc1)Nc1ccc(S(=O)(=O)NC(=O)c2ccc(N3CCC([C@@H](O)c4ccccc4-c4ccc(Cl)cc4)CC3)cc2)cc1S(=O)(=O)C(F)(F)F [AZD4320] + CN(C)CCCOc1ccc(-c2ccc3ncc4c(c3c2)n(C2CCOCC2)c(=O)n4C)cn1 [AZD0156] (first compound max 1 µM, 7x7, partner max 1 µM)
2. Cc1nc(Nc2ncc(C(=O)Nc3c(C)cccc3Cl)s2)cc(N2CCN(CCO)CC2)n1 [Dasatinib] + CC(=O)Nc1cccc(-n2c(=O)n(C3CC3)c(=O)c3c(Nc4ccc(I)cc4F)n(C)c(=O)c(C)c32)c1 [Trametinib] (first compound max 2 µM, 7x7, partner max 1 µM)
3. Cn1cnc2c(F)c(Nc3ccc(Br)cc3Cl)c(C(=O)NOCCO)cc21 [Selumetinib] + CCN(CCO)CCCOc1ccc2c(Nc3cc(CC(=O)Nc4cccc(F)c4)[nH]n3)ncnc2c1 [AZD2811] (first compound max 10 µM, 7x7, partner max 1 µM)
4. CC(=O)Nc1cccc(-n2c(=O)n(C3CC3)c(=O)c3c(Nc4ccc(I)cc4F)n(C)c(=O)c(C)c32)c1 [Trametinib] + Cc1nc(-c2cn3c(n2)-c2ccc(-c4cnn(C(C)(C)C(N)=O)c4)cc2OCC3)n(C(C)C)n1 [Taselisib] (first compound max 1 µM, 7x7, partner max 10 µM)
5. Cc1c2c(nn1C)CSCc1cc(n(C)n1)CSc1cc(c3ccccc3c1)OCCCc1c(C(=O)O)n(C)c3c-2c(Cl)ccc13 [AZD5991] + Cc1cc2ncnn2cc1Nc1ncc2c(n1)n(C1CCOCC1)c(=O)n2C [AZD7648] (first compound max 1 µM, 7x7, partner max 10 µM)

Ans:
1: 0.266; 2: 0.724; 3: 0.286; 4: 0.619; 5: 0.342
